# tgt: T1, His-tagged cynomolgus TIGIT (cynomolgus, UniProt A0A7N9I9V4 89-209)
# T1 construct: SPR analyte; also called cynomolgus TIGIT protein; not shown: His tag
# assayText: SPR (Biacore T200), antibody captured, His-tagged TIGIT analyte
Measured koff, listed per entry for reference.
observationType: koff (s⁻¹)

binder="TIGIT-87 chimeric antibody (antibody, human IgG1, kappa, V domains shown, Full-length chimeric IgG1 kappa) VH: EVKLVESGPELVKPGASMKISCKASGYSFTGYTMNWVKQSHGKNLEWIGLINPYNGGTSYNQKFKGKATLTVDKSSSTAYMELLSLTSEDSAVYYCARYANRFENWFAYWGQGTLVTVSS VL: DIQMTQSPASLSASVGETVTITCRASENIYSYLAWYQQKQGKSPQLLVYNAKTLAEGVPSRFSGSGSGTQFSLKINSLQPEDFGSYYCQHHYGTPWTFGGGTKLEIKR" observationtype=koff unitspec=s⁻¹ recordedmeasurement=0.063
binder="TIGIT-63 chimeric antibody (antibody, human IgG1, kappa, V domains shown, Full-length chimeric IgG1 kappa) VH: DVQLVESGGGLVQPGGSLSLSCAASGFTFTDYYMNWVRQPPGKALEWLGFIRNKANGYTTEYSASVKGRFTISRDNSQSILYLQMNALRAEDSATYYCARSTAWYFDVWGTGTTLTVSS VL: DIQMTQSPASLSASVGGTVTITCRASEHIYSYLAWYQQKQGKSPQLLVYNAKTLAEGVPSRFSGSGSGTQFSLKINSLQPKDFGSYYCQHHYGNPLTFGAGTKLELKR" observationtype=koff unitspec=s⁻¹ recordedmeasurement=0.00049
binder="TIGIT-3 chimeric antibody (antibody, human IgG1, kappa, V domains shown, also called 3VH + 3VL) VH: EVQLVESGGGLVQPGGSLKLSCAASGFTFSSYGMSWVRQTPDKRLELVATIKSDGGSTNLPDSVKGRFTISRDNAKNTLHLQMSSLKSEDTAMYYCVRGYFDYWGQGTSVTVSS VL: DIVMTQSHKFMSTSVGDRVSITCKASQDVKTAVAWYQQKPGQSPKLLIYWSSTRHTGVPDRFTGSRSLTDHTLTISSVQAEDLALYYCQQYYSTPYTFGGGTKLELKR" observationtype=koff unitspec=s⁻¹ recordedmeasurement=0.0002
